These entries and their values trace back to patent US10065990B2.

# Tested on: lncap (prostate cancer cells)
# Method Notes: MTT cancer cell growth inhibition
# Format: cell-based
# Experimental Conditions: Homo sapiens, LNCaP, 72 h, lncap cells, MTT, 72 hours incubation; read-out: GI50 lnca
Kindly state GI50 for each of the entries shown.
Put down the number, then write its unit next to it.

INPUT: Notebook entry, lncap (prostate cancer cells) assay: GI50 of `C/C=C1\NC(=O)c2ccc(SCC)c(n2)CNC(=O)C[C@@H](/C=C/CCSC(=O)CCCCCCC)OC(=O)[C@H](C(C)C)NC1=O` = ?
OUTPUT: 40 nM

INPUT: Next: `C=C1NC(=O)c2nc(ccc2SC)CNC(=O)C[C@@H](/C=C/CCSC(C)=O)OC(=O)[C@H](C(C)C)NC1=O`
OUTPUT: 50 nM

INPUT: Next: `C/C=C1\NC(=O)c2nc(ccc2SCCC)CNC(=O)C[C@@H](/C=C/CCSC(=O)CCCCCCC)OC(=O)[C@H](CC)NC1=O`
OUTPUT: 30 nM
